Data provenance is paper PMC4787775.

Substrate: Cc1c[nH]c(=O)[nH]c1=O
Test: purified protein
Assay type: biochemical, Neurospora crassa
Settings: 1 mM α-KG, 0.2 mM (NH4)2Fe(SO4)2, 0.2 mM ascorbic acid, 100 mM Hepes pH 7.5, 25 °C
Measured quantity: kcat (s⁻¹)
The answer is to be given in s⁻¹; state only the numeric part.

Exercise: I'd like to know its kcat. The protein in question is NcT7H (thymine-7-hydroxylase) (Neurospora crassa OR74A; R286A) (protein, full length (residues 1-333), C-terminal His6-tag, pET-28a, expressed in E. coli BL21(DE3); Ni-NTA and gel filtration, tag removal not mentioned) MEKAAVNEDGLVIPLIDFSKFLEGDETLKLETAKAILHGFQTAGFIYLKNIPIQPDFREHVFNTSAKFFKLPKEKKLEVGWTTPEANRGYSAPGREKVTQLTDPAEIEKIRSAAPDIKESYEIGREDEPGHPNPWPAEQDDLVGFKSTMNNFFDQCKALHIEVMRAIAVGMGIDANYFDSFVDVGDNILRLLHYPAVKSEVFKINPGQVRAGEHTDYGSITLLFQDSRGGLQVKSPNGQFIDATPIENTVVVNAGDLLARWSNDTIKSTVHRVVEPPKQEDVHPPAYSIAYFCNPNHKSYIEAIPGTYAAESERKYEGINSGKYLVQRLAATY
Solution: 0.405
